What Eff. % was measured for each of the following?
- System: Sphaerotheca fuliginea
- experimentDescription: In vivo preventive test on Sphaerotheca fuliginea (powdery mildew on cucurbits)
- measurementConditions: 500 ppm, preventive spray, gherkin plants, grading 12 days after contamination
- Experimental: In Vivo Preventive Test on Sphaerotheca fuliginea (Powdery Mildew on Cucurbits) The active ingredients tested are prepared by homogenization in a mixture of acetone/tween/DMSO and then diluted with water to obtain the desired active material concentration. Gherkin plants (“Vert petit de Paris” variety), sown in starter cups on a 50/50 peat soil-pozzolana substrate and grown at 24° C., are treated at the Z11 cotyledon stage by spraying with the active ingredient prepared as described above. […]
Answers are plain numbers, in %.

// below: answered compounds
compound	Eff. % [%]
CC(C)C1Cc2c(NC(=O)c3cccnc3C(F)F)cccc2C1(C)C (racemic)	100
CC1c2cccc(NC(=O)c3cccnc3C(F)F)c2CC1(C)C (stereo not drawn)	98

Respectfully, I request Eff. % for each entry included below.
1. CC(C)CC1CC(C)c2c(NC(=O)c3cccnc3C(F)F)cccc21 (stereo not drawn)
2. CC1CC(C)(C)c2c(F)ccc(NC(=O)c3cccnc3C(F)F)c21 (stereo not drawn)
3. CCC1(CC)Cc2c(NC(=O)c3cccnc3C(F)F)cccc2C1C (racemic)
4. CC(C)C1c2cccc(NC(=O)c3cccnc3C(F)F)c2CC1C (stereo not drawn)
5. CC1CC(C)(C)c2cccc(NC(=O)c3cccnc3C(F)F)c21 (stereo not drawn) [Example 13]
6. CC1CC(C)(C)c2cccc(NC(=O)c3cccnc3C(F)F)c21 (stereo not drawn) [Example 1]

Result block:
[98, 100, 100, 100, 100, 100]

List reported Eff. % for each of these compounds:
1. CON=C1c2cccc(NC(=O)c3cccnc3C(F)F)c2CC1(C)C (mixture of isomers)
2. Cc1cnc(C(F)F)c(C(=O)Nc2ccc(F)c3c2C(C)CC3(C)C)c1 (stereo not drawn)
3. CC1c2cccc(NC(=O)c3ccc(Cl)nc3C(F)F)c2CC1(C)C (stereo not drawn)
4. CCC1Cc2c(NC(=O)c3cccnc3C(F)F)cccc2C1(C)C (racemic)

Result block:
1: 100; 2: 94; 3: 94; 4: 100

List reported Eff. % for each of these compounds:
1. CC1(C)Cc2cccc(NC(=O)c3cccnc3C(F)F)c2C1
2. CC1CC(C(C)C)c2cccc(NC(=O)c3cccnc3C(F)F)c21 (stereo not drawn)
3. CC1CC(C)(C)c2cccc(NC(=S)c3cccnc3C(F)F)c21 (racemic)
4. CCC1(CC)OC(C(C)C)c2c(NC(=O)c3cccnc3C(F)F)cccc21 (racemic)
5. CC1c2c(NC(=O)c3cccnc3C(F)F)cccc2C(C)(C)C1C (stereo not drawn)
6. CC(C)(C)C1CCc2c(NC(=O)c3cccnc3C(F)F)cccc21 (racemic)

Result block:
100
95
100
98
100
94

###

- Tested on: Puccinia recondita
- experimentDescription: In vivo preventive test on Puccinia recondita (brown rust on wheat)
- measurementConditions: dose 100 ppm; wheat, spray, graded 12 days after contamination vs control plants
measuredQuantity: Eff. % (%)
Answers are plain numbers, in %.

compound	experimentalResult
CC(C)C1Cc2c(NC(=S)c3cccnc3C(F)F)cccc2C1(C)C (stereo not shown)	98
CC(C)C1OC(C)(C)c2cccc(NC(=O)c3cccnc3C(F)F)c21 (racemic)	94
CCC1(C)CC(C)c2c(NC(=O)c3ccc(Cl)nc3C(F)F)cccc21 (mixture of isomers)	83

For each of the compounds below, note its Eff. %.
1. CCC1OC(CC)(CC)c2cccc(NC(=O)c3cccnc3C(F)F)c21 (racemic)
2. CC1c2c(cccc2NC(=O)c2cccnc2C(F)F)CC1(C)C (stereo not shown)
3. CCC1Cc2c(NC(=S)c3cc(C)cnc3C(F)F)cccc2C1(C)C (stereo not shown)
4. CCC1Cc2c(NC(=S)c3cccnc3C(F)F)cccc2C1(C)C (stereo not shown)
5. CCC1(CC)c2cccc(NC(=O)c3cccnc3C(F)F)c2CC1C (stereo not shown)
6. CC(C)CC1CCc2cccc(NC(=O)c3cccnc3C(F)F)c21 (stereo not shown)
7. Cc1cnc(C(F)F)c(C(=S)Nc2cccc3c2C(C)CC32CC2)c1 (racemic)
8. CCC1(C)CC(C)c2c(NC(=O)c3cc(C)cnc3C(F)F)cccc21 (mixture of isomers)

Result block:
1. 98
2. 97
3. 98
4. 100
5. 94
6. 97
7. 100
8. 94

Each compound below has a recorded value; state its Eff. %.
1. CCC1(CC)CC(C)c2c(NC(=O)c3cc(C)cnc3C(F)F)cccc21 (racemic)
2. CCC1(CC)CC(C)c2c(NC(=O)c3cccnc3C(F)F)cccc21 (racemic)
3. CCC1CC(C)c2c(NC(=O)c3cccnc3C(F)F)cccc21 (stereo not shown)
4. Cc1cnc(C(F)F)c(C(=S)Nc2cccc3c2CC(C(C)C)C3(C)C)c1 (stereo not shown)
5. CCC1OC(C)(C)c2cccc(NC(=O)c3cccnc3C(F)F)c21 (racemic)

Result block:
89
100
88
89
98

###

- System: Sphaerotheca fuliginea
- experimentDescription: In vivo preventive test on Sphaerotheca fuliginea (powdery mildew on cucurbits)
- measurementConditions: 500 ppm, preventive spray, gherkin plants, grading 12 days after contamination
Record form. Attribute: Eff. %. Fill in for each entry.
One number for each entry, in %.

For each entry beneath this line, provide reported Eff. %.
1. CC1CC(CC(C)(C)C)c2cccc(NC(=S)c3cccnc3C(F)F)c21 (stereo not shown)
2. CC1CC2(CC2)c2cccc(NC(=O)c3cccnc3C(F)F)c21 (racemic)
3. CC1CC(CC(C)(C)C)c2cccc(NC(=O)c3cccnc3C(F)F)c21 (stereo not shown)
4. CC1Cc2c(NC(=O)c3cccnc3C(F)F)cccc2C1(C)C (stereo not shown)

Result block:
1. 98
2. 89
3. 100
4. 98

###

- experimentDescription: log P by HPLC on reversed phase columns (EEC directive 79/831 Annex V.A8)
- Assay type: physicochemical
- measurementConditions: Table 1, formula (I); HPLC/LC-MS at pH 2.7, 0.1% formic acid in water / acetonitrile, gradient 10% to 95%
measuredQuantity: logP^[a]

Sample answers from the record:
molecule	experimentalResult
CCC1(CC)Cc2c(NC(=O)c3cccnc3C(F)F)cccc2C1C (racemic)	4.11^[a]
CON=C1CC(C)c2c(NC(=O)c3cccnc3C(F)F)cccc21 (racemic)	2.32^[a]
CCC1OC(C)(C)c2cccc(NC(=O)c3ccc(Cl)nc3C(F)F)c21 (racemic)	3.09^[a]
CC1CC(C(C)C)c2cccc(NC(=O)c3cccnc3C(F)F)c21 (stereo not drawn)	3.65^[a]
CC1CC(C)(C)c2c(F)ccc(NC(=O)c3ccc(Cl)nc3C(F)F)c21 (stereo not drawn)	4.09^[a]

For the 4 molecules below, give their logP^[a] values.
1. Cc1cnc(C(F)F)c(C(=O)Nc2cccc3c2C(C)CC3(C)C)c1 (stereo not drawn)
2. CON=C1CC(C)c2c(NC(=O)c3cc(C)cnc3C(F)F)cccc21 (stereo not drawn)
3. CC1CC(CC(C)(C)C)c2cccc(NC(=S)c3cccnc3C(F)F)c21 (stereo not drawn)
4. CCCCON=C1CC(C)c2c(NC(=O)c3cc(C)cnc3C(F)F)cccc21 (racemic)

Result block:
1: 3.55^[a]; 2: 2.61^[a]; 3: 4.87^[a]; 4: 3.46^[a]

Okay, here is my list. What is logP^[a] for each of these?
1. CC1CC2(CC2)c2cccc(NC(=O)c3ccc(Cl)nc3C(F)F)c21 (racemic)
2. CC(C)C1Cc2c(NC(=O)c3cccnc3C(F)F)cccc2C1(C)C (racemic)
3. CC(C)C1Cc2c(NC(=S)c3ccc(Cl)nc3C(F)F)cccc2C1(C)C (stereo not drawn)
4. Cc1cnc(C(F)F)c(C(=O)Nc2ccc(F)c3c2C(C)CC3(C)C)c1 (stereo not drawn)
5. CC(C)(C)C1CCc2c(NC(=O)c3cccnc3C(F)F)cccc21 (racemic)
6. CCC1(CC)c2cccc(NC(=O)c3cccnc3C(F)F)c2CC1C (stereo not drawn)
7. CC1CC(C)(C)c2cccc(NC(=O)c3ccc(Cl)nc3C(F)F)c21 (racemic)

Result block:
1. 3.73^[a]
2. 4.11^[a]
3. 5.11^[a]
4. 3.64^[a]
5. 3.78^[a]
6. 3.99^[a]
7. 3.99^[a]

Would you mind giving logP^[a] for every molecule in the list below?
1. CCC1Cc2c(NC(=S)c3cccnc3C(F)F)cccc2C1(C)C (stereo not drawn)
2. CC1CC(C)(C)c2cccc(NC(=O)c3cc(Cl)cnc3C(F)F)c21 (racemic)
3. Cc1cnc(C(F)F)c(C(=O)Nc2cccc3c2C(C)CC32CC2)c1 (racemic)
4. CCC1(CC)CC(C)c2c(NC(=O)c3cccnc3C(F)F)cccc21 (racemic)
5. CC1c2c(cccc2NC(=O)c2cccnc2C(F)F)CC1(C)C (stereo not drawn)
6. CC1Cc2c(NC(=O)c3cccnc3C(F)F)cccc2C1C (stereo not drawn)
7. Cc1cnc(C(F)F)c(C(=S)Nc2cccc3c2CC(C(C)C)C3(C)C)c1 (stereo not drawn)
8. CC1c2cccc(NC(=O)c3cccnc3C(F)F)c2CC1(C)C (stereo not drawn)

Result block:
1. 4.16^[a]
2. 4.06^[a]
3. 3.31^[a]
4. 4.01^[a]
5. 3.29^[a]
6. 3.06^[a]
7. 4.74^[a]
8. 3.35^[a]

Would you mind giving logP^[a] for every molecule in the list below?
1. CC1OC(C)(C)c2cccc(NC(=O)c3ccc(Cl)nc3C(F)F)c21 (racemic)
2. CC1(C)OCc2c(NC(=O)c3cccnc3C(F)F)cccc21
3. CCC1OC(C)(C)c2cccc(NC(=O)c3cc(C)cnc3C(F)F)c21 (racemic)
4. Cc1cnc(C(F)F)c(C(=O)Nc2cccc3c2CC(C)(C)C3C)c1 (stereo not drawn)
5. CC1CC(C)(C)c2c(F)ccc(NC(=O)c3cccnc3C(F)F)c21 (stereo not drawn)
6. CC1OC(C)(C)c2c(Br)ccc(NC(=O)c3cccnc3C(F)F)c21 (stereo not drawn)

Result block:
["2.77^[a]", "2.01^[a]", "2.64^[a]", "3.65^[a]", "3.35^[a]", "2.89^[a]"]
